Values compiled from patent US20240174648A1.

experimental_system: UniProt P23458
method_description: JAK kinase inhibition assay (EZ Reader, peptide substrate phosphorylation) - JAK1
Format: biochemical
settings: JAK1 kinase 20 nM; 8 concentration points, max 10 μM
Below is a list of entries, each paired with its recorded IC50 value.

Challenge: Name the recorded IC50 for COCC(=O)Nc1cc(-c2ccnc(Nc3cnn(C)c3)n2)ccn1 [TDM-180777] .
Response given: ≥ 10 µM

Challenge: Dear colleague, I am looking for the recorded IC50 of the following molecule: Cn1cc(Nc2nccc(-c3ccc(NC(=O)C4CC4)c4[nH]ncc34)n2)cn1 [TDM-180884]
Response given: 0.1 to 1 µM

Challenge: What value of IC50 has been recorded for this entry: Cn1cc(Nc2nccc(-c3ccc(NS(=O)(=O)Cc4ccccc4)nc3)n2)cn1 [TDM-180897]
Response given: 0.1 to 1 µM

Challenge: Would you mind telling me what IC50 value was observed for Cn1cc(Nc2nccc(-c3ccc(-n4nccc4C4CC4)cc3)n2)cn1 [TDM-180763] ?
Response given: 10 µM

Challenge: What does the data say about its IC50? Entry: Cn1cc(Nc2nccc(-c3ccc(C(=O)NC4CC4)cc3)n2)cn1 [TDM-180852]
Response given: 1 to 10 µM

Challenge: Need IC50 of C=CCS(=O)(=O)Nc1ccc(-c2ccnc(Nc3cnn(C)c3)n2)cc1 [TDM-180844] , thanks.
Response given: 0.1 to 1 µM

====

experimental_system: JAK1 (Homo sapiens, UniProt P23458)
Sequence (P23458 whole entry): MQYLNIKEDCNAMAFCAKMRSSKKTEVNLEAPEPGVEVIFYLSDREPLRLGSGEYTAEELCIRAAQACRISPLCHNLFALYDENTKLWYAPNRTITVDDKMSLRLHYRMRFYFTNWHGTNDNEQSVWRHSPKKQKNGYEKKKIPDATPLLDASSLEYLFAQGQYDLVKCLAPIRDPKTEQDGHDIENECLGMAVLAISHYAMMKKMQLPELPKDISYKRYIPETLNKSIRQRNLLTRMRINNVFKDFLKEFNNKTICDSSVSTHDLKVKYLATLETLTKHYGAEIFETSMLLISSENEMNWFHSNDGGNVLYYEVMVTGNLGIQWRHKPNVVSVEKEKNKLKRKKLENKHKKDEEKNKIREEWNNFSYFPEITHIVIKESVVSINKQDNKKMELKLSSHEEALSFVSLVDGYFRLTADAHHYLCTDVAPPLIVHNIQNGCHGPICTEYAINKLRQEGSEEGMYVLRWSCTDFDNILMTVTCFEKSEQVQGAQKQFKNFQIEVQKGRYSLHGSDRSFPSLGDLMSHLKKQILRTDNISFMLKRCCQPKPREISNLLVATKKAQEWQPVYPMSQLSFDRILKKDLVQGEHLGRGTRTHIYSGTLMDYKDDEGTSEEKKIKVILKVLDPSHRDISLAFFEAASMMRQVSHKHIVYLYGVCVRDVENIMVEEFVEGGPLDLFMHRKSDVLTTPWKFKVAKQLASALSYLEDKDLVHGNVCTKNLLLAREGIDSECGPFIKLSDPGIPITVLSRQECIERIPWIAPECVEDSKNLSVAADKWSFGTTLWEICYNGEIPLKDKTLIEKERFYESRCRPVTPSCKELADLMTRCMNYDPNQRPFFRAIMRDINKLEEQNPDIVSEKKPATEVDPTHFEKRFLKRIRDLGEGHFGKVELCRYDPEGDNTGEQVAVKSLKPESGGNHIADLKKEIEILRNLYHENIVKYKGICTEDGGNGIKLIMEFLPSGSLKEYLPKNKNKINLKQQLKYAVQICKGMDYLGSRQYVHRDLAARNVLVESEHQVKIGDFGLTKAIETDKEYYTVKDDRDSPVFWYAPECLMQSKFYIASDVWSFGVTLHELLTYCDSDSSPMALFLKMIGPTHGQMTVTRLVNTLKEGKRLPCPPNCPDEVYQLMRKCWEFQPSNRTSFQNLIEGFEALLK
method_description: JAK kinase inhibition assay (EZ Reader, peptide substrate phosphorylation) - JAK1
Assay type: biochemical
settings: JAK1 kinase 20 nM; 8 concentration points, max 10 μM
outcome_measure: IC50

>>> recorded_measurement("Cn1cc(Nc2nccc(-c3ccc(NC(=O)CC#N)nc3)n2)cn1")
"0.1 to 1 µM"

Challenge: Would you kindly share the measured IC50 for Cn1cc(Nc2nccc(-c3ccc(NC(=O)C(F)F)nc3)n2)cn1 ?
Response given: 0.1 to 1 µM

Challenge: Report IC50 for Cn1cc(Nc2nccc(-c3ccc(NC(=O)CO)cc3)n2)cn1 please.
Response given: 0.1 to 1 µM

Challenge: # lookup: IC50 of Cn1cc(Nc2nccc(-c3ccc(NC(=O)C4CCC4)nc3)n2)cn1
Response given: 0.1 to 1 µM

Challenge: Which IC50 is listed for CCS(=O)(=O)Nc1ccc(-c2ccnc(Nc3cnn(C)c3)n2)cc1 ?
Response given: 0.1 to 1 µM

Challenge: Look up IC50 for this compound: Cn1cc(Nc2nccc(-c3ccc(NC(=O)[C@H]4CC4(F)F)cc3)n2)cn1
Response given: < 0.1 µM

Challenge: For Cn1cc(Nc2nccc(-c3ccc(NC(=O)C4CCC4)cc3)n2)cn1 , what is its reported IC50?
Response given: 0.1 to 1 µM

Challenge: Field request: IC50 | item: Cn1cc(Nc2nccc(-c3ccnc(NC(=O)CC(F)(F)F)c3)n2)cn1
Response given: ≥ 10 µM

Challenge: Entry Cn1cc(Nc2nccc(-c3ccc(NC(=O)[C@H]4CC4(F)F)nc3)n2)cn1 : reported IC50 = ?
Response given: < 0.1 µM

====

Each entry below carries its reported IC50.
experimental_system: JAK2 (Homo sapiens, UniProt O60674)
Sequence (O60674 whole entry): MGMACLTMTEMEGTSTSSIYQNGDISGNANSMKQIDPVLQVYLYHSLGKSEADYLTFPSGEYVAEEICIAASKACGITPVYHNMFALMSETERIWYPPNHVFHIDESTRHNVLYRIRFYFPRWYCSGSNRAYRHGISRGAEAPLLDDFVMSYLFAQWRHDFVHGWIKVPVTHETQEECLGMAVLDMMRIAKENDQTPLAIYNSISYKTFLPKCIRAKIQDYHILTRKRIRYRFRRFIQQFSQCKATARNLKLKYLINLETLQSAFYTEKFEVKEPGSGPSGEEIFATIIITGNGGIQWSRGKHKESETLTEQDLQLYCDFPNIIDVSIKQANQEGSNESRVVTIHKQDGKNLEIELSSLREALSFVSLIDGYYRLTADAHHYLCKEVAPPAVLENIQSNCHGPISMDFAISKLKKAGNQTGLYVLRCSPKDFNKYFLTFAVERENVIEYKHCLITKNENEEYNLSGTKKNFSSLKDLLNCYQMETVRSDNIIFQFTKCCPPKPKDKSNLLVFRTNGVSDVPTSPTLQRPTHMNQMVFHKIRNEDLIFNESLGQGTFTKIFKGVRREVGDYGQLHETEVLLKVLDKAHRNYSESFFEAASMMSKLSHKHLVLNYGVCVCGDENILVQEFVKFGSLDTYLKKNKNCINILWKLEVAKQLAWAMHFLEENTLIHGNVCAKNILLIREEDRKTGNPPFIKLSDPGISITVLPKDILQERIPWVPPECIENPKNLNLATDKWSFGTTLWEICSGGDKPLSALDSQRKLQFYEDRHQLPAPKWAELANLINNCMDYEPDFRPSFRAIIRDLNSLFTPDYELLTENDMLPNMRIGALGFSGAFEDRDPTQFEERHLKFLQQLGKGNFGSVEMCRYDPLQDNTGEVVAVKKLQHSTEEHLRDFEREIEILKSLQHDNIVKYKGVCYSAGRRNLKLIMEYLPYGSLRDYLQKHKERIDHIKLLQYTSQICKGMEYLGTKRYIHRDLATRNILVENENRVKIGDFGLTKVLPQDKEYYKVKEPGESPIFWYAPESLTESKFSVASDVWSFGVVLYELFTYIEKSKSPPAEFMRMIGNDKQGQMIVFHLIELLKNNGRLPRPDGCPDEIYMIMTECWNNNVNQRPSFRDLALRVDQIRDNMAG
method_description: JAK kinase inhibition assay (EZ Reader, peptide substrate phosphorylation) - JAK2
Assay type: biochemical
settings: JAK2 kinase 1 nM; 8 concentration points, max 10 μM

Use these answered entries as a reference point.
>>> recorded_measurement("Cn1cc(Nc2nccc(-c3ccc(NC(=O)C4(F)CC4)cc3)n2)cn1")
"0.1 to 1 µM"
>>> recorded_measurement("Cn1cc(Nc2nccc(-c3ccc(NS(=O)(=O)Cc4ccccc4)cc3)n2)cn1")
"< 0.1 µM"
>>> recorded_measurement("Cn1cc(Nc2nccc(-c3ccc(C(=O)NCC(F)(F)F)cc3)n2)cn1")
"0.1 to 1 µM"
>>> recorded_measurement("Cn1cc(Nc2nccc(-c3ccc(NC(=O)C4CCC4)nc3)n2)cn1")
"1 to 10 µM"
>>> recorded_measurement("Cn1cc(Nc2nccc(-c3ccc(NC(=O)C(F)F)nc3)n2)cn1")
"0.1 to 1 µM"
>>> recorded_measurement("Cn1cc(Nc2nccc(-c3ccc(NC(=O)CC(F)(F)F)cc3)n2)cn1")
"< 0.1 µM"
>>> recorded_measurement("Cn1cc(Nc2nccc(-c3ccc(C(=O)NCC#N)nc3)n2)cn1")
"0.1 to 1 µM"
>>> recorded_measurement("CCS(=O)(=O)Nc1ccc(-c2ccnc(Nc3cnn(C)c3)n2)cc1")
"0.1 to 1 µM"
>>> recorded_measurement("Cn1cc(Nc2nccc(-c3ccc(NC(=O)C4CC4)cc3)n2)cn1")
"< 0.1 µM"
>>> recorded_measurement("CCOCCS(=O)(=O)Nc1ccc(-c2ccnc(Nc3cnn(C)c3)n2)cc1")
"< 0.1 µM"

Moving on to another compound below.
Challenge: Value lookup for IC50; key = CN1CCN(c2ccc(-c3ccnc(Nc4cnn(C)c4)n3)cc2)CC1
Response given: 1 to 10 µM

====

# reported IC50; entries follow
experimental_system: JAK1 (Homo sapiens)
method_description: JAK kinase inhibition assay (EZ Reader, peptide substrate phosphorylation) - JAK1
Format: biochemical
settings: JAK1 kinase 20 nM; 8 concentration points, max 10 μM

>>> recorded_measurement("Cn1cc(Nc2nccc(-c3cnc(NC(=O)C4CC4(F)F)c(F)c3)n2)cn1 (stereo not shown)")
"0.1 to 1 µM"
>>> recorded_measurement("Cn1cc(Nc2nccc(-c3ccc(NC(=O)[C@@H]4CC4(F)F)nc3)n2)cn1")
"< 0.1 µM"
>>> recorded_measurement("Cn1cc(Nc2nccc(-n3ccc4c(NC(=O)C5CC5)cccc43)n2)cn1")
"< 0.1 µM"

Now for another entry.
Challenge: What value of measured IC50 is listed for Cn1cc(Nc2nccc(-c3ccc(NC(=O)C4CC4(F)F)c4[nH]ncc34)n2)cn1 (stereo not shown) ?
Response given: < 0.1 µM

====

experimental_system: Tyk2 (Homo sapiens, UniProt P29597)
Sequence (P29597 whole entry): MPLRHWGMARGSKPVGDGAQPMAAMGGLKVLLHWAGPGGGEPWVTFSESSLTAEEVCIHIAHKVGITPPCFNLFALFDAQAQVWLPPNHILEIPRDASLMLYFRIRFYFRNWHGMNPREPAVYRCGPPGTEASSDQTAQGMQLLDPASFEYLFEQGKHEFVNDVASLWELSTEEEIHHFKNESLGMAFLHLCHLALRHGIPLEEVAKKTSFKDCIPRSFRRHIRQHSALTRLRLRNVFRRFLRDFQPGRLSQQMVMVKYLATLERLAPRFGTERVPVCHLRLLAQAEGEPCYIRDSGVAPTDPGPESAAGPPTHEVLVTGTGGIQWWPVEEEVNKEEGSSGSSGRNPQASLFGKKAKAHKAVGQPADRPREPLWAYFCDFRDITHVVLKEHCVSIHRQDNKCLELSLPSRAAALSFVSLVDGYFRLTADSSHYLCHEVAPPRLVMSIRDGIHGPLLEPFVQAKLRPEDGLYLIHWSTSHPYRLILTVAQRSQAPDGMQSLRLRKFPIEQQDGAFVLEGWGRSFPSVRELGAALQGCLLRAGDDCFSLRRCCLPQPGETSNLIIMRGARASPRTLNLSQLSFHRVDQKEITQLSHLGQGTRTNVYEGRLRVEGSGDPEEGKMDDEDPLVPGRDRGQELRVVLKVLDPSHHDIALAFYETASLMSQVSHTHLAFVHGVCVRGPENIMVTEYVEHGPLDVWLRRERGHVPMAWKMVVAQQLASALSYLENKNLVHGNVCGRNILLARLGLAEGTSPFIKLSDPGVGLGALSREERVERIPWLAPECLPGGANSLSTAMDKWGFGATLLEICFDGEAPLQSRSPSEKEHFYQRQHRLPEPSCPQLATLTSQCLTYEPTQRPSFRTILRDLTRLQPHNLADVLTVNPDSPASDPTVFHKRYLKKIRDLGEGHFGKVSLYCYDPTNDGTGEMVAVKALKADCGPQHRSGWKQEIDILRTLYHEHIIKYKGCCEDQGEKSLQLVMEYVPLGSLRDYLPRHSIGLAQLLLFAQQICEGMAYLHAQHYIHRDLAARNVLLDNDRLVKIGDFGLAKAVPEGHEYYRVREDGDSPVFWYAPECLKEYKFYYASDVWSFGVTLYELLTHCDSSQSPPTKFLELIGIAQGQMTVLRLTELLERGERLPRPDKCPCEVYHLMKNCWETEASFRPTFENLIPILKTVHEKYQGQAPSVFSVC
method_description: JAK kinase inhibition assay (EZ Reader, peptide substrate phosphorylation) - Tyk2
Type: biochemical
settings: Tyk2 kinase 1 nM; 8 concentration points, max 10 μM
Reported IC50 is given for each of the following compounds.

>>> recorded_measurement("Cn1cc(Nc2nccc(-c3ccc(NC(=O)C4CC4)cc3)n2)cn1")
"< 0.1 µM"
>>> recorded_measurement("COCCC(=O)Nc1ccc(-c2ccnc(Nc3cnn(C)c3)n2)cc1")
"1 to 10 µM"
>>> recorded_measurement("Cn1cc(Nc2nccc(-c3ccc(NC(=O)C4(C)CC4)cc3)n2)cn1")
"0.1 to 1 µM"
>>> recorded_measurement("Cn1cc(Nc2nccc(-c3ccc(C(=O)N4CCS(=O)(=O)CC4)cc3)n2)cn1")
"1 to 10 µM"
>>> recorded_measurement("Cn1cc(Nc2nccc(-c3ccc(NC(=O)CC4CC4)c4[nH]ccc34)n2)cn1")
"0.1 to 1 µM"

Challenge: # IC50 lookup, item Cn1cc(Nc2nccc(-c3ccc(NC(=O)CC(F)(F)F)cc3)n2)cn1
Response given: 0.1 to 1 µM

Challenge: So what does the record say about IC50 for COCCC(=O)Nc1ccc(-c2ccnc(Nc3cnn(C)c3)n2)cn1 ?
Response given: 1 to 10 µM

Challenge: May I ask what IC50 has been recorded for Cn1cc(Nc2nccc(-c3ccc(NS(=O)(=O)CCC(F)(F)F)nc3)n2)cn1 ?
Response given: ≥ 10 µM

Challenge: What IC50 value was documented for this compound, Cn1cc(Nc2nccc(-c3ccc(NS(=O)(=O)Cc4ccccc4)cc3)n2)cn1 ?
Response given: < 0.1 µM

Challenge: Entry Cn1cc(Nc2nccc(-c3cnc(NC(=O)C4CC4)cn3)n2)cn1 : reported IC50 = ?
Response given: 1 to 10 µM

Challenge: Quick check: IC50 of Cn1cc(Nc2nccc(-c3ccc(CN4CCOCC4)cc3)n2)cn1 ?
Response given: 1 to 10 µM

Challenge: Returns the measured IC50 for the input compound. Input: Cn1cc(Nc2nccc(-c3ccc(NC(=O)C4CC4)c4[nH]ccc34)n2)cn1
Response given: 0.1 to 1 µM

Challenge: // IC50 lookup, key: Cn1cc(Nc2nccc(-c3ccc(NS(=O)(=O)C4CCOCC4)nc3)n2)cn1
Response given: 1 to 10 µM

Challenge: IC50 lookup needed for Cc1cc(-c2ccnc(Nc3cnn(C)c3)n2)cnc1NC(=O)C1CC1(F)F (stereo not drawn) , thanks.
Response given: 1 to 10 µM

Challenge: For Cn1cc(Nc2nccc(-c3cnc(NC(=O)C4CC4)nc3)n2)cn1 , what is its reported IC50?
Response given: 1 to 10 µM

Challenge: Query (compound): Cn1cc(Nc2nccc(-c3ccc(NC(=O)[C@H]4CC4(F)F)nc3)n2)cn1 ; field requested: IC50
Response given: 0.1 to 1 µM

Challenge: Quick check: IC50 of Cn1cc(Nc2nccc(-n3ccc4c(NC(=O)CC#N)cccc43)n2)cn1 ?
Response given: 0.1 to 1 µM

Challenge: // returns reported IC50 for input Cn1cc(Nc2nccc(-c3ccnc(NC(=O)C4CC4(F)F)c3)n2)cn1 (stereo not drawn)
Response given: ≥ 10 µM

Challenge: Entry under review: Cn1cc(Nc2nccc(-c3ccnc(NC(=O)CC#N)c3)n2)cn1 . Reported IC50?
Response given: ≥ 10 µM

Challenge: Would you kindly share the measured IC50 for Cn1cc(Nc2nccc(-c3cnc(NC(=O)C4CC4(F)F)c(F)c3)n2)cn1 (stereo not drawn) ?
Response given: 0.1 to 1 µM

Challenge: Any idea what IC50 was measured for COCC(=O)Nc1ccc(-c2ccnc(Nc3cnn(C)c3)n2)cn1 ?
Response given: ≥ 10 µM

Challenge: Which IC50 is reported for this compound? Cn1cc(Nc2nccc(-c3cnc(NS(=O)(=O)Cc4ccccc4)c(F)c3)n2)cn1
Response given: ≥ 10 µM

Challenge: Which IC50 is listed for Cn1cc(Nc2nccc(-c3ccc(NC(=O)C(F)F)nc3)n2)cn1 ?
Response given: 0.1 to 1 µM
